- System: human prostate cancer cell VCaP nude mouse transplanted tumor model
- Test Protocol: Prostate tumor pharmacodynamics experiment: VCaP nude mouse transplanted tumor model
- Type: in vivo, BALB/c nude mice
- Conditions Used: day 25; 0.5 mmol·kg−1 i.g. QD; n=6; * P<0.05, ** P<0.01 vs solvent control
Entries and their measured Tumor volume, day 25 follow.

Compound: CCC(=O)O/N=C1/C=C2CC[C@H]3[C@H](CC[C@]4(C)C(c5cccnc5)=CC[C@@H]34)[C@@]2(C)CC1 [ZONK1901-19, reference compound]
Target Or Test System: human prostate cancer cell VCaP nude mouse transplanted tumor model
Tumor volume, day 25: 790 ± 49 * mm3
--
Compound: Cc1ccccc1C(=O)ON=C1C=C2CC[C@H]3[C@H](CC[C@]4(C)C(c5cccnc5)=CC[C@@H]34)[C@@]2(C)CC1
Target Or Test System: human prostate cancer cell VCaP nude mouse transplanted tumor model
Tumor volume, day 25: 410 ± 44 ** mm3
--
Compound: CN(C)CCNC(=O)ON=C1C=C2CC[C@H]3[C@H](CC[C@]4(C)C(c5cccnc5)=CC[C@@H]34)[C@@]2(C)CC1
Target Or Test System: human prostate cancer cell VCaP nude mouse transplanted tumor model
Tumor volume, day 25: 384 ± 32 ** mm3
--
Compound: CC(=O)O[C@H]1CC[C@@]2(C)C(=CC[C@@H]3[C@@H]2CC[C@]2(C)C(c4cccnc4)=CC[C@@H]32)C1 [ZONK1901-10, abiraterone acetate, reference compound]
Target Or Test System: human prostate cancer cell VCaP nude mouse transplanted tumor model
Tumor volume, day 25: 765 ± 46 * mm3
--
Compound: C[C@]12CCC(=NOC(=O)N(CCCl)CCCl)C=C1CC[C@H]1[C@@H]2CC[C@]2(C)C(c3cccnc3)=CC[C@@H]12
Target Or Test System: human prostate cancer cell VCaP nude mouse transplanted tumor model
Tumor volume, day 25: 478 ± 64 ** mm3
--
Compound: C[C@]12CCC(=NOC(=O)N3CCC(N4CCCCC4)CC3)C=C1CC[C@H]1[C@@H]2CC[C@]2(C)C(c3cccnc3)=CC[C@@H]12
Target Or Test System: human prostate cancer cell VCaP nude mouse transplanted tumor model
Tumor volume, day 25: 377 ± 37 ** mm3
--
Compound: CNCCC(=O)ON=C1C=C2CC[C@H]3[C@H](CC[C@]4(C)C(c5cccnc5)=CC[C@@H]34)[C@@]2(C)CC1
Target Or Test System: human prostate cancer cell VCaP nude mouse transplanted tumor model
Tumor volume, day 25: 405 ± 15 * mm3
--
Compound: CN(C)C(=O)ON=C1C=C2CC[C@H]3[C@H](CC[C@]4(C)C(c5cccnc5)=CC[C@@H]34)[C@@]2(C)CC1
Target Or Test System: human prostate cancer cell VCaP nude mouse transplanted tumor model
Tumor volume, day 25: 393 ± 25 ** mm3
